- System: DU-145 prostate
- Protocol Summary: NCI-60 one-dose screen, 48 h (100 = growth as untreated, 0 = no growth, -100 = all killed)
- Test Conditions: 10 µM unless noted
About 83,000 compounds went through this panel and 20% of them were active in at least one assay; those are over-represented in the sample as a whole.
Readout: growth (%)
Give the quantity in %, number only.

Past entries and their recorded results:
Compound: ClCc1c(Cl)c(Cl)c(Cl)c(CCl)c1Cl
Test Target: DU-145 prostate
Units Symbol: %
growth: 14.8
--
Compound: O=C(Nc1cccc(-n2ccc3c(NC(=O)c4ccccc4)nccc32)c1)c1ccc(Cl)c(Cl)c1
Test Target: DU-145 prostate
Units Symbol: %
growth: -73.3
--
Compound: CCN(CC)c1ccc(/C=N/NC(=O)C[N+](C)(C)C)cc1
Test Target: DU-145 prostate
Units Symbol: %
growth: 113
--
Compound: O=C(CCl)N1c2ccccc2Oc2ccc3ccccc3c21
Test Target: DU-145 prostate
Units Symbol: %
growth: -7.27

GET /value?item= CC(=O)OC[C@H]1O[C@@H](n2c(=O)cc(N)[nH]c2=O)C(OC(C)=O)[C@@H]1OC(C)=O (stereo partly specified) &field=growth returns 108

Lab note: "NC(=O)c1ccc[n+](Cc2ccccc2)c1" gave growth of 101

Form: compound = "COc1ccc(-c2cc(C(=O)Nc3ccc(Br)cc3)nc3[nH]c(=O)sc23)cc1" ; growth = 54.9

get_value(item= CCOC(=O)C(Cc1ccccc1)n1c(O)c(/C=N/c2ncc(Cc3ccc(Cl)cc3Cl)s2)sc1=S (stereo unspecified) , readout=growth) returns 26.2

Entry "CCCCCCCCCCCCCCCCCC(=O)[O][Sn]([CH2]CCC)([CH2]CCC)[CH2]CCC" , growth reported as -100

The recorded growth for entry CS(=O)(=O)c1ccc(C(=O)N2N=C(c3ccccc3)CC2c2ccc3c(c2)OCO3)cc1 (stereo unspecified) equals 97.4

Kindly note the recorded growth for "CCOC(=O)c1cc(C(=O)OCC)c(C)nc1C" , which is 109

Value of measured growth for the entry "O=S1(=O)NCCN1CCNc1nccc(-c2c(-c3cccc(O)c3)nc3sccn23)n1" : 106

Value of growth reported for the compound "C=CCN(CC#N)CC=C" is 112

Summary for this compound, "CC1(C)CN(CCNc2nccc(-c3c(-c4cccc(O)c4)nc4sccn34)n2)S(=O)(=O)N1" : growth is 67.9

Note to self: growth recorded for "CN(C)CCCn1c(=O)c2cc([N+](=O)[O-])ccc2c2cnc3[nH]ccc3c21" was 50.5

Kindly note the recorded growth for "COC(=O)c1ccc2c(c1)nc(-c1ccc(Cl)cc1)n2-c1cc(C(C)(C)C)[nH]n1" , which is 85.9

// growth lookup, compound = O=C(CSc1nnc(Cc2ccccc2Nc2c(Cl)cccc2Cl)n1-c1ccccc1)N1N=C(c2ccc3ccccc3c2)CC1c1ccc(Cl)cc1 (stereo unspecified) , result: 94.3

Looking up "COc1ccc(-c2nn(C(=O)NCCN(C)C)cc2-c2ccncc2)cc1Cl" , I see its growth listed as 77.6

###

- Tested on: NCI-H522 lung
- Protocol Summary: NCI-60 one-dose screen, 48 h
- Test Conditions: 10 µM unless noted
This is part of a sample that, as a whole, favours compounds with a hit. Of some 83,000 tested, about 20% had one in any assay. The source made the active and inactive calls. The calls were made as follows: active = growth percent below 10; inactive = the rest.
Classes to choose from: 1.0 = active, 0.0 = inactive

Molecule: COc1cc(/C=C/c2cc(/C=C/c3ccc(O)c(OC)c3)n(C(=O)Nc3ccc(F)c(Cl)c3)n2)ccc1O
Class Name: 0.0
//
Molecule: c1cc(C2CCCCC2)ccc1-c1cnc2nonc2n1
Class Name: 1.0

Exam item: For "O=C1Nc2ccccc2/C1=C\c1nc(C2CCN(S(=O)(=O)c3ccc(F)cc3)CC2)n2ccccc12" , which call appears in the assay record?
Marked response: 0.0

Exam item: Hello, I am checking results. What call was entered for O=C1N(Cc2ccccc2Cl)c2ccccc2C12NN=C(c1ccccc1)S2 (stereo not given) ?
Marked response: 0.0

Exam item: Which outcome was entered for the molecule "O=C(NO)c1ccc(CNc2cccc3nc(C4CC4)n(-c4ccccc4)c(=O)c23)cc1" in this test?
Marked response: 0.0

###

- System: DU-145 prostate
- Protocol Summary: NCI-60 one-dose screen, 48 h
- Test Conditions: 10 µM unless noted
The panel holds about 83,000 compounds, 20% with a hit somewhere; the sample as a whole holds those more often. Calls of active or inactive are those of the source. How the source made its calls: active means growth percent below 10; inactive means the rest.
Just give me one of these, please: class 1 (active), class 0 (inactive)

Worked cases, answers included:
Compound: C/C(=N\NC(=O)CSc1nc2ccccc2c(=O)n1CCc1ccc(S(N)(=O)=O)cc1)c1ccc(Br)cc1
Class Name: class 0
//
Compound: Clc1cc2nc(-c3ccccc3)c(-c3ccccc3)nc2cc1Cl
Class Name: class 0

Exam item: Field: outcome | Entry: "O=C(CCCCCCN1CC(=O)N2[C@@H](c3ccc(Cl)c(Cl)c3)c3[nH]c4ccccc4c3C[C@H]2C1=O)NO"
Marked response: class 0

Exam item: Can you look up the reported call for "O=[N+]([O-])c1ccc(N/N=C\c2ccc(O)cc2O)nc1" for me?
Marked response: class 0

###

- Tested on: SK-MEL-2 melanoma
- Protocol Summary: NCI-60 one-dose screen, 48 h (100 = growth as untreated, 0 = no growth, -100 = all killed)
- Test Conditions: 10 µM unless noted
About 83,000 compounds went through this panel and 20% of them were active in at least one assay; those are over-represented in the sample as a whole. Active and inactive are the calls of the source. The calls were made as follows: active = growth percent below 10; inactive = the rest.
Reported growth values follow for various compounds

Measured growth, "O=C(Nc1ccc(Cl)cc1)c1cc(-c2ccc(Cl)cc2)c2sc(=O)[nH]c2n1" : -29.3% (active)

Entry "CC(C)CCSc1nc(-c2ccc(F)cc2)c(C#N)c(N2CCCCC2)n1" , growth reported as 85.7% (inactive)

Data point: "O=[N+]([O-])c1ccc(Sc2nc(Cl)nc(NC3CCCC3)n2)cc1" ; growth = -91.7% [100 µM] (active)

Reported growth ( C=CCOC(=O)C1=C(C)NC2=C(C(=O)CC(C)(C)C2)C1c1ccc(OC)cc1 (stereo unspecified) ) = 95% (inactive)

According to the records, this compound "Nc1cc(C(=O)O)cc(C(=O)O)c1" displays growth of 89.6% (inactive)

###

- Test system: UACC-62 melanoma
- Protocol Summary: NCI-60 one-dose screen, 48 h
- Test Conditions: 10 µM unless noted
Compounds without any hit were thinned out: in the full panel of roughly 83,000, 20% have a hit. Activity calls are given as the source filed them. How the source made its calls: active means growth percent below 10; inactive means the rest.
Response enum: active, inactive

Solved cases below.
Compound: CCCCCCCCCCCCNC(=O)N[C@H](C(=O)N[C@H]1/C=C/OCCNC(=O)/C=C/[C@H](C(C)C)NC1=O)C(C)C
Class Name: inactive
--
Compound: O=C(CCl)Nc1ccc2c(c1)C(=O)c1ccccc1C2=O
Class Name: active
--
Compound: CCCCOC(=O)c1cc(O)c(O)c(O)c1
Class Name: inactive
--
Compound: Nc1nc(N)c2cc(NCc3ccc(Cl)c(Cl)c3)ccc2n1
Class Name: active
--
Compound: Cc1cc([N+](=O)[O-])c(C)cc1N
Class Name: inactive
--
Compound: COc1cc(NC(=O)CSc2nc3ccc(Cl)cc3c(=O)n2-c2ccccc2)cc(OC)c1OC
Class Name: inactive
--
Compound: OC(CCCCCCCCC(O)CN1CCc2ccccc2C1)CN1CCc2ccccc2C1 (configuration not stated)
Class Name: inactive
--
Compound: CN1CCCN(CCNc2nccc(-c3c(-c4cccc(O)c4)nc4sccn34)n2)S1(=O)=O
Class Name: active
--
Compound: COc1ccc(-n2nc(C(=O)Nc3ccc(F)cc3)nc2-c2cc(OC)c(OC)c(OC)c2)cc1
Class Name: inactive
--
Compound: CCN(CC)CCNC(=O)C(F)(F)C(F)(F)C(F)(F)F
Class Name: inactive

Exam item: Which outcome did this test record for the compound "CCOC(OCC)c1cnc2nc(NC(C)=O)[nH]c(=O)c2n1" ?
Marked response: inactive

Exam item: Hey, what did the test say about "C=CCOc1ccc2c(C)cc(=O)oc2c1" ?
Marked response: inactive

Exam item: // return assay outcome for "CC1(C)CN(CCNc2nccc(-c3c(-c4cccc(O)c4)nc4sccn34)n2)S(=O)(=O)N1"
Marked response: active

Exam item: Test call for this compound, please: "COc1cc(/C=C/c2cc(/C=C/c3ccc(O)c(OC)c3)n(C(=O)Nc3ccc(F)c(Cl)c3)n2)ccc1O"
Marked response: active

Exam item: Given "C=C1C(=O)O[C@H]2[C@H]1CC/C(COC(=O)NCc1[nH]nc3ccccc13)=C\CC[C@@]1(C)O[C@@H]21" , state the outcome it received in this test.
Marked response: inactive

Exam item: Short answer needed: outcome of this test for CN1C(=O)N(C)C2C1NN=c1s/c(=C\c3ccc(Br)cc3)c(=O)n12 (configuration not stated) ?
Marked response: inactive
